target: Thrombin (UniProt P00734;P00734 P00734:328-363,P00734:364-622); assay: fluorescence intensity titration; 50 mM Tris pH 7.5, 100 mM NaCl, 5 mM KCl, 1 mM MgCl2
Readout Label: pKd
Here pKd is given on a logarithmic scale as minus log10 of the concentration in mol/L.

Please give the documented pKd of GGTTGGTGTGGTTGG (ssDNA) [THR2 (G15D)]
8.20

Recorded values, source patent US20140248710.
